Target: T1, human PD-L1 expressed on CHO-K1 cells (Genscript, Cat #M00543) (human, UniProt Q9NZQ7 19-290)
T1 construct: also called PD-L1 cell line
T1 sequence (Q9NZQ7 19-290, one chain of several): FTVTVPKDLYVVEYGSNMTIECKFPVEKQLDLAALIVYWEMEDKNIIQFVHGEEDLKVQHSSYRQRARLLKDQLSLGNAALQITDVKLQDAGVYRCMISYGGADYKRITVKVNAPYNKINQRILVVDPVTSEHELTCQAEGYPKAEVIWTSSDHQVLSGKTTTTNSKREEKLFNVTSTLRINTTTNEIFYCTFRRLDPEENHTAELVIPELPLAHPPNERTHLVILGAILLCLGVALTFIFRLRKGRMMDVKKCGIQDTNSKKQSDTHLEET
Experiment: FACS competition vs biotin-PD-1-Fc on CHO-K1/human PD-L1 cells
Reported Endpoint: pIC50
FYI, pIC50 means -log10 of a concentration in mol per litre.

Worked examples follow.
# Binder, Measured Number
data = [
    ("29A8_VH5-VL1.M1 (antibody, human IgG1, kappa, N297A, V domains shown, Humanized, hIgG1 effector-less Fc, kappa; see recheck on K24R in the .M1 light chain) VH: EVQLQESGPGLVKPSETLSLTCTVSGYSITSDFAWDWIRQPPGKGLEWIGHIRFSGTTSYNPSLKSRVTISRDTSKNQFSLKLSSVTAADTAVYYCARSTLITKGFFDYWGQGTLVTVSS VL: DIQMTQSPSSLSASVGDRVTITCRASQDVSPAVAWYQQKPGKAPKLLIYWASTRHTGVPSRFSGSGSGTDFTLTISSLQPEDFATYYCQQHYSTPWTFGQGTKVEIKR", 9.26),
    ("42G2D7C3 (antibody, V domains shown, Mouse mAb from hybridoma culture) VH: DVQLLESGPGLVKPSQSLSLTCSVTGYSITSGYYWNWIRQFPGNNLEWMGSINYDGSNDYNPSLQDRISITRDTSKNQFFLKLNSVTTEDTATYYCARRLDYWGQGTTLIVSS VL: QIVLTQSPAIMSASPGEKVTISCSASSFINYMYWYQQKPGSSPKPWILRTSTLASGVPARFSGSGSGTSYSLTISSMEAEDAATYYCQQYHSYPLTFGAGTKLELK", 8.54),
]

Shift focus to the following entry.
## Task What value of pIC50 has been recorded for this entry: 29A8_chimeric (antibody, human IgG1, kappa, N297A, V domains shown, Human IgG1 with effector-less Fc mutations, human kappa; also called chimeric 29A8H8C7) VH: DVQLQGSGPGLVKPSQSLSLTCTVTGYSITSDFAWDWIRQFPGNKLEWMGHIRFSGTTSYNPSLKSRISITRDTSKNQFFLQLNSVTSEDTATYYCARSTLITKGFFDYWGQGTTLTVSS VL: DIVMTQSHKFMSTSVGGRVSITCKASQDVSPAVAWYQQKPGQSPKLLIYWASTRHTGVPDRFTGSGSGTDFTLTISSVQTEDLALYYCQQHYSTPWTFGGGTKLEIKR
## Result 9.52
